biological target: K-Ras G12C (Homo sapiens, UniProt P01116, G12C); construct: This protein contained 188 amino acids in total, including an N-terminal 6-Histidine tag; made in house; host or cells: E. coli BL21; test: CAF assay (% CAF; method in Example 7, not in this part); assay type: binding; conditions: 10 μM, 1 h; Table 4
quantity: % CAF @ 10 μM, 1 h (%)

C=CC(=O)N1CCN(c2nc(=O)n3c4c(c(-c5ccc(F)cc5F)c(Cl)cc24)SC[C@@H]3CN2CCN(CC(F)F)CC2)[C@@H](C)C1: 95
C=CC(=O)N1CCN(c2nc(=O)n3c4c(c(-c5ccc(F)cc5F)c(Cl)cc24)SC[C@H]3CN2CCN(CC)CC2)[C@@H](C)C1: 79.3
C=CC(=O)N1CCN(c2nc(=O)n3c4c(c(-c5ccc(F)cc5F)c(Cl)cc24)SC[C@H]3CC2CCN(CC(F)F)CC2)[C@@H](C)C1: 92
C=CC(=O)N1CCN(c2nc(=O)n3c4c(c(-c5ccc(F)cc5F)c(Cl)cc24)SC[C@H]3CN2CCN(CC(F)F)CC2)[C@@H](C)C1: 82.5
C=CC(=O)N1CCN(c2nc(=O)n3c4c(c(-c5ccc(F)cc5F)c(C(F)(F)F)cc24)SC[C@@H]3CN2CCN(CC(F)F)CC2)[C@@H](C)C1: 96
